observed property: logP

>>> df
                                   molecule  observed_property  numeric_readout
0  Oc1ccccc1OC(c1ccccc1)C1CNCCO1 (stereo not given)               logP             1.92
1  CCC(C)NC(=O)c1cc2ccccc2c(-c2ccccc2Cl)n1 (stereo not given)               logP             3.25
2  CCCn1c(=O)c2[nH]c(C3CCCC3)nc2n(CCCF)c1=O               logP             2.83
3  CCN1CCCC1CNC(=O)c1cc(Br)cc(OC)c1OC (stereo in doubt)               logP             2.37
4  COC(=O)C1C(c2ccc(I)cc2)CC2CCC1N2C (stereo not given)               logP             2.13
5  COc1cc2c(cc1OC)CN(CCc1ccc(NC(=O)c3cccc4c(=O)c5cccc(OC)c5[nH]c34)cc1)CC2               logP             4.82
6     CCN1CCC[C@H]1CNC(=O)c1cc(I)cc(OC)c1OC               logP             2.73
7  CNCC(O)CCN1c2ccccc2N(c2ccccc2)S1(=O)=O (stereo not given)               logP             2.55
8    CN1Cc2c(C(=O)OCCF)ncn2-c2ccc(F)cc2C1=O               logP             0.93
9  Cn1c2c(c3ccccc31)C[C@@]1(O)[C@@H]3Cc4ccc(O)c5c4[C@@]1(CCN3CC1CC1)[C@H]2O5               logP             4.28

FYI, the data here is from the SangsterLogP compilation.
